Tested on: SN12C renal
Assay: NCI-60 one-dose screen, 48 h
Conditions: 10 µM unless noted
Compounds without any hit were thinned out: in the full panel of roughly 83,000, 20% have a hit. Active and inactive are the calls of the source. Rule for the calls: active = growth percent below 10; inactive = the rest.
Outcome codes: active, inactive

Molecule	Assigned Category
O=C(Nc1ccc2c(c1)C(=O)c1ccccc1-2)c1ccccc1	inactive
CCCCN1c2nc3ccccc3cc2Sc2cc3ccccc3nc21	inactive
O=C1C(=O)c2c(nc3ccc(Cl)cn23)-c2ccccc21	active
CCCCOP(=O)(OCCCC)C(C(=O)OCC)C(CC(=O)OCC)C(=O)OCC (stereo not given)	inactive
O=C(COc1ccc(/C=C2\Cc3ccccc3C2=O)cc1)c1ccc(Cl)cc1	inactive
O=C1CNc2cc(Cl)ccc2N1	inactive
CC(=O)N1N=C(c2ccc3c(c2)OCO3)CC1c1c(C)nn(-c2ccccc2)c1N(C)Cc1ccccc1 (stereo not given)	inactive
O=C1/C(=C/c2ccc(F)cc2)Cc2ccccc21	inactive
CCCCCc1c(C)[nH]c(/C=C2\N=C(c3ccc[nH]3)C=C2Oc2ccc(Cl)cc2)c1C	active
COc1ccc(C2=NN(C(C)=O)C(c3c(C)nn(-c4ccccc4)c3N3CCOCC3)C2)cc1 (stereo not given)	inactive
CCCCCCC(CC#N)(CCC)CCCC (stereo not given)	inactive
CSc1nc2nc3c(c(-c4ccc(C)cc4)c2c(=O)[nH]1)CN(C)C/C3=C\c1ccc(C)cc1	inactive
CCCCCCCC[Si](OCC)(OCC)OCC	inactive
O=C(COc1ccc(/C=C2\Oc3ccc4ccccc4c3C2=O)cc1)c1ccc([N+](=O)[O-])cc1	inactive
COc1ccc(-c2cnc(SCC(=O)Nc3ccc(-c4nc5ccccc5s4)cc3)n2-c2ccc(OC)cc2)cc1	inactive
N#Cc1c(-c2ccccc2)cc(-c2ccccc2)n(CCCCCCC(=O)O)c1=O	inactive
N/C(=N\c1nc2ccccc2s1)NC(=O)Nc1ccccc1Cl	inactive
O=C(Nc1ccc(Cl)cc1)Nc1ccccc1CNc1nc(Nc2ccc(OCCN3CCCC3)cc2)ncc1Cl	inactive
Nc1nc(NC2CC2)c2ncn(C3C=CC(CO)C3)c2n1 (stereo not given)	inactive
Cc1ccc(C2=Nc3c(ccc4c(C)c(C)c(=O)oc34)OC2)cc1	inactive
O=C(Nc1nc(-c2ccc(Cl)cc2)cs1)c1cc(-c2ccc(Br)cc2)nc2ccc(Cl)cc12	inactive
Nc1nc(Nc2ccccc2SSc2ccccc2Nc2nc(N)nc(-c3cccc(Cl)c3)n2)nc(-c2cccc(Cl)c2)n1	inactive
O=C(c1ccc(Cl)cc1)c1ccc(Cl)cc1	inactive
COc1ccc(/C=C2\CCc3ccccc3C2=O)cc1	inactive
CCCCc1ccc(C(N)=O)nc1	inactive
CC1=C([Se]CC(OC(=O)[C@@H](CSSC(C)(C)C)NC(=O)C(C)(C)C)C(=O)NCCCCCC(=O)OCc2ccccc2)C(=O)c2ccccc2C1=O (stereo not given in full)	active
CC[N+](CCCCCCCCCC[N+](CC)(c1ccccn1)c1ccccn1)(c1ccccn1)c1ccccn1	active
NS(=O)(=O)c1ccc(-n2ncc3c(N/N=C/c4ccccc4)ncnc32)cc1	inactive
Cc1cc2ccccn2c1C(=O)c1ccc(C(=O)c2ccccc2)cc1	inactive
CCC(=O)Nc1cc2c(cc1Cl)-c1ccccc1C2	inactive
O=C1/C(=C\c2coc3ccccc3c2=O)c2ccccc2N1c1c(Cl)cccc1Cl	inactive
N#Cc1c(-c2ccccc2)cc(-c2ccccc2)n(CCCCC(=O)O)c1=O	inactive
CCCc1n(Cc2ccc3ccccc3c2)cc[n+]1Cc1ccc2ccccc2c1	active
COc1ccc2c(c1)CC/C(=C\c1ccc(OCC(=O)Nc3nc4ccccc4s3)cc1)C2=O	inactive
Cc1nn(-c2ccccc2)c2nc(N)c(C3=NCCO3)nc12	inactive
